FYI, the data here is from ChEMBL document CHEMBL2073861.

Target: Organic cation/carnitine transporter 2 (Homo sapiens)
Assay: TP_TRANSPORTER: inhibition of carnitine uptake by Carnitine-related compound-14 at 20uM in Xenopus laevis oocytes
Format: functional, cell-based, Oocyte
Parameters: scale not given: the % may be the effect or the level left
Details: probe carnitine, read-out: Activity
Reported metric: activity at 20 µM (%)
Dear colleague, please return just the value in %, with no unit written.

Q: Bench note: what activity at 20 µM did CC[N+](CC)(CC)CC(O)CC(=O)[O-] (stereo unspecified) show?
Ans: 70

====

Target: Organic cation/carnitine transporter 2 (Homo sapiens)
Sequence (O76082 whole entry): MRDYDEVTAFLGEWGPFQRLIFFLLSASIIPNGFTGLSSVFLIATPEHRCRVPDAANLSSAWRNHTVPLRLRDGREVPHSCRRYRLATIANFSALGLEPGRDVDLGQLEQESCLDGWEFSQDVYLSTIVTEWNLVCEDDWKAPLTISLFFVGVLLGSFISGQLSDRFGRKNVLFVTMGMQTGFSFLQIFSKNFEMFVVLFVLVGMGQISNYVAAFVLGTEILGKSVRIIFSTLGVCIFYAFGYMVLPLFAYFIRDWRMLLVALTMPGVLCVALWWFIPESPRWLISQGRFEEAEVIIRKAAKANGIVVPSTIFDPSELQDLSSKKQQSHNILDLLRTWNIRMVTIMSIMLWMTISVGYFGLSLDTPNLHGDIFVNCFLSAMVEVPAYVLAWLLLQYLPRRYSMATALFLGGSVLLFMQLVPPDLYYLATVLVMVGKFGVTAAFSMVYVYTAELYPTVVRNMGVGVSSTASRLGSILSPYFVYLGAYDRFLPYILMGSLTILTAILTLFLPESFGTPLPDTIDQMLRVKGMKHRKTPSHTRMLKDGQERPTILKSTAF
Experiment: TP_TRANSPORTER: inhibition of carnitine transport by Carnitine-related compound-3A at 20uM in Xenopus laevis oocytes
Assay type: functional, cell-based, Oocyte
Set-up: scale not given: the % may be the effect or the level left
Conditions: probe carnitine, read-out: Activity
Reported metric: activity at 20 µM (%)
Report the figure in % without appending any unit label.

Q: What does the record list as activity at 20 µM for `CC[N+](C)(CC)CCCCC(=O)O` ?
Ans: 20

====

Target: Solute carrier family 22 member 16 (Homo sapiens)
Sequence (Q86VW1 whole entry): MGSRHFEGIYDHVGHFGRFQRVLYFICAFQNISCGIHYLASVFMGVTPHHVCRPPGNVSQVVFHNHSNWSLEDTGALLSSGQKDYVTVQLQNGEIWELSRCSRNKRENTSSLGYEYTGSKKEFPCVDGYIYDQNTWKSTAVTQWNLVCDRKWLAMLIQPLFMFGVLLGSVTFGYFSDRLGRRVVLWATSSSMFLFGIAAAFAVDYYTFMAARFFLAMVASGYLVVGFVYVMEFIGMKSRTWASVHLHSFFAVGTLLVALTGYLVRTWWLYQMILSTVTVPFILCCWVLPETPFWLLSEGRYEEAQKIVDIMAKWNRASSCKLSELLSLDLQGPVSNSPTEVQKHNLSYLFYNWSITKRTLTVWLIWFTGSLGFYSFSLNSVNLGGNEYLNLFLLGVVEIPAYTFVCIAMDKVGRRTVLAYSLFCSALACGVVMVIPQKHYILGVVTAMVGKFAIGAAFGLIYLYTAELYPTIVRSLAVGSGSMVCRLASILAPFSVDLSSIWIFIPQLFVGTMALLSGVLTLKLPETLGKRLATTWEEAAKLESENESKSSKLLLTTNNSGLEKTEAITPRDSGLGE
Assay: TP_TRANSPORTER: inhibition of carnitine in Xenopus laevis oocytes
Reported metric: Ki (µM)
Field format: number, assumed µM, no unit text.

Q: Tell me the measured Ki of C[N+](C)(C)C[C@@H](O)CC(=O)[O-] [D-CARNITINE] , please.
Ans: 30

====

Target: Organic cation/carnitine transporter 2 (Homo sapiens, UniProt O76082)
Experiment: TP_TRANSPORTER: inhibition of carnitine transport by Carnitine-related compound-8A at 20uM in Xenopus laevis oocytes
Type: functional, cell-based, Oocyte
Parameters: scale not given: the % may be the effect or the level left
Settings: probe carnitine, read-out: Activity
Reported metric: activity at 20 µM (%)
Field: numeric (%). Do not append units.

Q: # input compound: `CC[N+](C)(CC)CCCCCC(=O)O` ; wanted: its activity at 20 µM
Ans: 20

====

Biological target: Organic cation/carnitine transporter 2 (Homo sapiens, UniProt O76082)
Assay: TP_TRANSPORTER: inhibition of carnitine transport by Carnitine-related compound-7A at 20uM in Xenopus laevis oocytes
Format: functional, cell-based, Oocyte
Design: scale not given: the % may be the effect or the level left
Conditions: probe carnitine, read-out: Activity
Reported metric: activity at 20 µM (%)
Write the value in % as a bare number.

Q: Look at this compound and give its reported activity at 20 µM. `C[N+](C)(C)CCCCCC(=O)O`
Ans: 35
